System: RPMI-8226 leukemia
Experiment: NCI tumour cell line growth inhibition, 48 h
Reported values of TGI for individual entries
readout_type: TGI

INSERT INTO measurements (compound, system_name, readout_type, observed_result) VALUES
  ('Clc1cccc(Cn2cc(Cc3cn(Cc4cccc(Cl)c4)c4ccccc34)c3ccccc32)c1', 'RPMI-8226 leukemia', 'TGI', '> 100 µM'),
  ('CCOc1cc(NC(C)=O)ccc1C(=O)N/N=C/c1ccco1', 'RPMI-8226 leukemia', 'TGI', '> 100 µM'),
  ('CC(C)CC(=O)N1CCN(C(=O)CC(C)C)c2ccccc21', 'RPMI-8226 leukemia', 'TGI', '> 100 µM'),
  ('COc1cccc(N=N/C(=N/NC(=O)c2cc(Cl)ccc2O)c2ccc(N(CCC#N)CCC#N)cc2C)c1', 'RPMI-8226 leukemia', 'TGI', '> 100 µM'),
  ('CCN(CC)CCC(=O)c1ccc(Oc2ccc(C)cc2)cc1', 'RPMI-8226 leukemia', 'TGI', '65.9 µM'),
  ('CCCCCCCCCCCCCCCCCC(=O)[O][Sn]([CH2]CCC)([CH2]CCC)[CH2]CCC', 'RPMI-8226 leukemia', 'TGI', '0.602 µM'),
  ('CCc1ccc(/C(C#N)=C/C=C/c2ccccc2)cc1', 'RPMI-8226 leukemia', 'TGI', '> 69 µM'),
  ('O=[N+]([O-])c1nccn1CCCN=c1c2ccccc2n(O)c2ccccc12', 'RPMI-8226 leukemia', 'TGI', '> 100 µM'),
  ('COC(=O)C1C2CC3C(OC(=O)C31)C2I (stereo unspecified)', 'RPMI-8226 leukemia', 'TGI', '> 100 µM'),
  ('Cn1ccnc1SC(F)(F)c1nc2ccccc2o1', 'RPMI-8226 leukemia', 'TGI', '> 100 µM'),
  ('Oc1c(Cl)ccc2cccnc12', 'RPMI-8226 leukemia', 'TGI', '8.28 µM');
